The reported measurements were obtained from ChEMBL document CHEMBL3351728.

tested on: Zone of skin; experiment: Skin permeability in human cadaver skin in Franz diffusion cell system; type: ADME
Quick rule for you: Jss at 0.9 ug/cm2.hr or higher means Met, lower means Not met.

1) CO[C@@H]1C(c2ccc(C#N)c(Cl)c2C)=NN2CC[C@H](O)[C@@H]12 :: Met
2) CO[C@@H]1C(c2ccc(C#N)c(Cl)c2C)=NN2CC(F)(F)C[C@@H]12 :: Not met
3) COCCO[C@@H]1C(c2ccc(C#N)c(Cl)c2C)=NN2CC[C@H](O)[C@@H]12 :: Met
4) CO[C@@H]1C(c2ccc(C#N)c(Cl)c2C)=NN2CC[C@@H](F)[C@@H]12 :: Met
5) C[C@]12CC[C@H]3[C@@H](CCC4=CC(=O)CC[C@@]43C)[C@@H]1CC[C@@H]2O :: Not met
6) CO[C@@H]1C(c2ccc(C#N)c(Cl)c2C)=NN2CC[C@@H](O)[C@@H]12 :: Not met

====

molecular target: UniProtKB P10275; test: Displacement of [3H]DHT from androgen receptor in human MDA-MB-435 cells after 30 mins
propertyName: IC50 (nM)

1) CO[C@@H]1C(c2ccc(C#N)c(Cl)c2C)=NN2CC[C@H](O)[C@@H]12 :: 0.7

====

target: Androgen receptor (Homo sapiens, UniProt P10275)
Sequence (P10275 whole entry): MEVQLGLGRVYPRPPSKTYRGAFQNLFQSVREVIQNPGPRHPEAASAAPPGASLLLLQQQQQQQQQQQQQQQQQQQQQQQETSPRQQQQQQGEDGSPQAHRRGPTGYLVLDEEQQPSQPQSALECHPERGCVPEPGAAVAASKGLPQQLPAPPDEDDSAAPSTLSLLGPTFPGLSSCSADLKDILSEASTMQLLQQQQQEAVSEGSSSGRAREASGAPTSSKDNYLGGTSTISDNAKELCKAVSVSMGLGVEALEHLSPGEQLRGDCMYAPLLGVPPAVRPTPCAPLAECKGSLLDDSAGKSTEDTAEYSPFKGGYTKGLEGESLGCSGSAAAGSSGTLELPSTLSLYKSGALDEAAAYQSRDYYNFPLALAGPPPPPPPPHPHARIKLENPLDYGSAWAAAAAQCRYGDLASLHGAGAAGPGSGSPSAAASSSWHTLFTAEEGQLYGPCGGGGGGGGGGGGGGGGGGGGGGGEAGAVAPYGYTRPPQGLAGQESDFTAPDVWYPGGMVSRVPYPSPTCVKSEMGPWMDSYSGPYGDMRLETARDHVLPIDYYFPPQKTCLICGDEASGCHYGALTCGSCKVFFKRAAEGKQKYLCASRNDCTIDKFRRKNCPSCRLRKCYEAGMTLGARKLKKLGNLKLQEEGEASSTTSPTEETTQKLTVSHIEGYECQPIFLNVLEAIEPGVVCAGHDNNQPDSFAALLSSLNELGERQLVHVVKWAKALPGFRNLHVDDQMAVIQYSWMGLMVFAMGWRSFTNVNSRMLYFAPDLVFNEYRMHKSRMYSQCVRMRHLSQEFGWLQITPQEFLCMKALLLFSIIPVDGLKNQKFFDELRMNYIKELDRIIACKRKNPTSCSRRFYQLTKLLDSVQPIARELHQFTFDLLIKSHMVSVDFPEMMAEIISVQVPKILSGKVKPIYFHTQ
Could you mark each record Y if its EC50 falls strictly under 4 nM, and N if it equals or exceeds it?

1) CO[C@@H]1C(c2ccc(C#N)c(Cl)c2C)=NN2CC[C@@H](F)[C@@H]12 :: Y
2) Cc1c(C2=NN3CC[C@H](O)[C@H]3[C@@H]2O)ccc(C#N)c1Cl :: N
3) CO[C@@H]1C(c2ccc(C#N)c(Cl)c2C)=NN2CC[C@@H](O)[C@@H]12 :: Y
4) CO[C@@H]1C(c2ccc(C#N)c(Cl)c2C)=NN2CC[C@H](F)[C@@H]12 :: Y
5) CO[C@@H]1C(c2ccc(C#N)c(Cl)c2C)=NN2CC(=O)C[C@@H]12 :: N
6) CO[C@@H]1C(c2ccc(C#N)c(Cl)c2C)=NN2C[C@H](O)C[C@@H]12 :: N
7) CO[C@@H]1C(c2ccc(C#N)c(Cl)c2C)=NN2CC(F)(F)C[C@@H]12 :: Y
8) CCO[C@@H]1C(c2ccc(C#N)c(Cl)c2C)=NN2CC[C@H](O)[C@@H]12 :: Y
9) Cc1c(C2=NN3CC[C@H](O)[C@H]3[C@@H]2OC(C)C)ccc(C#N)c1Cl :: N
10) CO[C@@H]1C(c2ccc(C#N)c(Cl)c2C)=NN2C[C@@H](F)C[C@@H]12 :: Y

====

assay: Cmax in Wistar rat at 0.5 mg/kg, sc; format: ADME, organism-based; set-up: dose 0.5 mg/kg, route subcutaneous; conditions: in vivo
propertyName: Cmax (ng/mL)

1) CO[C@@H]1C(c2ccc(C#N)c(Cl)c2C)=NN2CC[C@H](O)[C@@H]12 :: 79

====

Entries and their measured log10 of solubility thermodynamic follow.
test: Thermodynamic solubility of the compound at pH 7.4; assay type: physicochemical; settings: buffer, read-out: Therm_solubility
propertyName: log10 of solubility thermodynamic (log10 of the value in µg/mL)

1. CCO[C@@H]1C(c2ccc(C#N)c(Cl)c2C)=NN2CC[C@H](O)[C@@H]12 :: 2.40
2. CO[C@@H]1C(c2ccc(C#N)c(Cl)c2C)=NN2CC[C@@H](F)[C@@H]12 :: 1.00
3. CO[C@@H]1C(c2ccc(C#N)c(Cl)c2C)=NN2CC[C@H](O)[C@@H]12 :: 3.11
4. CO[C@@H]1C(c2ccc(C#N)c(Cl)c2C)=NN2CC(F)(F)C[C@@H]12 :: 1.00
5. C[C@]12CC[C@H]3[C@@H](CCC4=CC(=O)CC[C@@]43C)[C@@H]1CC[C@@H]2O :: 1.60
6. CO[C@@H]1C(c2ccc(C#N)c(Cl)c2C)=NN2CC[C@@H](O)[C@@H]12 :: 2.40
7. COCCO[C@@H]1C(c2ccc(C#N)c(Cl)c2C)=NN2CC[C@H](O)[C@@H]12 :: 3.36
